target: G-protein coupled receptor 55 (Homo sapiens, UniProt Q9Y2T6); assay: GPR55 antagonists blocking LPI-driven arrestin recruitment, primary screen, imaging, U2OS, beta-arrestin-GFP, LPI agonist (AID 2013); type: functional;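 further: antagonist potency measured as reduced agonist-driven arrestin aggregation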
Sequence (Q9Y2T6 whole entry): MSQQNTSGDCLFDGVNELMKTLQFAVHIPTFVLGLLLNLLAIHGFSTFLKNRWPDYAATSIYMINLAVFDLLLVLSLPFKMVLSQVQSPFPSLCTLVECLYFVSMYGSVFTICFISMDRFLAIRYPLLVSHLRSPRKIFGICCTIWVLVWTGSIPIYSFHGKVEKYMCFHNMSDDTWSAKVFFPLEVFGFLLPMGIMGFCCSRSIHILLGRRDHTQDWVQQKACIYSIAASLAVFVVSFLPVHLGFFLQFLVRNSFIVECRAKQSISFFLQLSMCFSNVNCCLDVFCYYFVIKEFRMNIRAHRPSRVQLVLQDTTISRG
The source made the active and inactive calls.
Overview of recorded IC50 for various compounds

Solved entries:
entrySmiles	reading
COC(=O)C1=C(C)N(Cc2ccccc2)C(NCc2cccc(C(F)(F)F)c2)=N[C@H]1c1cccc(F)c1	1.85 µM (active)
CCc1ccc(C(=O)NC(=S)Nc2ccccc2N2CCOCC2)cc1	1.2 µM (active)
CCOC(=O)c1cnc2c(c(C)nn2C)c1Oc1ccc(Cl)cc1	3.54 µM (active)

Lab note: next compound to report on.
Task: Need IC50 of COc1ccc(-c2cc(N)n(S(=O)(=O)c3c(F)c(F)c(F)c(F)c3F)n2)cc1OC , thanks.
Result: 1.18 µM (active)

---

Overview of recorded EC50 for various molecules
test: growth suppression of beta-catenin-knockout colon cells, dose response, cell-based, HCT116, human colon tumor (AID 1045); assay type: functional;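 further: HCT116 colon tumor cells with beta catenin knocked out; cells exposed to compound for 60 hours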
Activity calls are given as the source filed them.

Solved entries:
entrySmiles	EC50
O=C(NCc1cccnc1)/C(=C\c1ccc(-c2cccc(Cl)c2)o1)S(=O)(=O)c1ccccc1	2.86 µM (active)
O=C1ON=C(c2ccccc2)/C1=C/c1ccc(-c2ccccc2[N+](=O)[O-])o1	21.4 µM (active)
CN(C)CCNC=C(C(=O)Nc1ccc(Cl)cc1Cl)C(=O)Nc1ccc(Cl)cc1Cl	26.4 µM (active)

Task: Need EC50 of COc1ccc(-c2cc(C(F)(F)F)nc(N3CCN(C)CC3)n2)cc1OC , thanks.
Result: 30.2 µM (active)

Task: Need EC50 of COC(=O)c1[nH]c2ccc(C)cc2c1NC(=O)NC1CCCCC1 , thanks.
Result: 26.5 µM (active)

---

Overview of recorded AC50 for various compounds
test: Shn3 3'UTR reporter inhibitors, dose response, cell-based, Clone20 osteoblasts, firefly luciferase, cherry-picked (AID 624132); type: functional;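 further: firefly luciferase luminescence from reporter carrying the Shn3 3'UTR in osteoblasts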
Active and inactive are the calls of the source.

Solved entries:
compound	readoutLabel	reading
COc1ccc(NS(=O)(=O)c2ccc3ccccc3c2)c2ncccc12	AC50	4.82 µM (active)
Cc1cc(Br)c2c(c1)/C(=C/C(=O)c1cccs1)C(=O)N2	AC50	19.9 µM (active)
N#Cc1ccc(NC(=O)Nc2ccc(Oc3ccc(NC(=O)Nc4ccc(C#N)cc4)cc3)cc2)cc1	AC50	2.68 µM (active)
O=C(OCC12CC3CC(CC(C3)C1)C2)c1ccc(NCc2cc(O)ccc2O)cc1	AC50	3.25 µM (active)
COc1cc(OC)c(OC)cc1CNc1cc(C)ccc1OC	AC50	18.1 µM (active)
CCOc1cc(CNCCc2ccc(S(N)(=O)=O)cc2)ccc1OCc1ccccc1	AC50	2.44 µM (active)
O=C1NC2C(=CC(O)C(O)C2O)c2cc3c(cc21)OCO3 (centres undefined)	AC50	2.22 µM (active)
COc1ccccc1C(=O)Nc1nc(-c2ccc(S(=O)(=O)N3CCOCC3)cc2)cs1	AC50	1.21 µM (active)

Lab note: next compound to report on.
Task: Need AC50 of CCOc1cc(/C=C2/C(=O)ON=C2C)ccc1OCc1ccccc1F , thanks.
Result: 6.95 µM (active)

---

Cytochrome P450 3A4 (Homo sapiens) AC50 data
Sequence (P08684 whole entry): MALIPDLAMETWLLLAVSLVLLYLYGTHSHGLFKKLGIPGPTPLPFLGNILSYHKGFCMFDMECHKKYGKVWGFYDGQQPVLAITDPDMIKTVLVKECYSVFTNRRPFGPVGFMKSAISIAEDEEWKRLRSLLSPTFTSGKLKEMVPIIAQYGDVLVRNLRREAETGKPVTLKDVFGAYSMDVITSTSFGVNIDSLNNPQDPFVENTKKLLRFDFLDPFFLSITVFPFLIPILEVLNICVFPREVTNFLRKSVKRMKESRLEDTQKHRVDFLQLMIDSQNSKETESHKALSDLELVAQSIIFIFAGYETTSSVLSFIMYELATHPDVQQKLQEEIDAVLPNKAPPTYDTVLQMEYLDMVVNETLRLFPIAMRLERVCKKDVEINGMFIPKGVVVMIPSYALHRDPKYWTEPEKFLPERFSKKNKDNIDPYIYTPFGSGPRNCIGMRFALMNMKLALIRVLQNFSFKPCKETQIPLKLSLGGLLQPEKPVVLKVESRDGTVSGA

entrySmiles	assaySystem	AC50
CCNc1ncc2nc(-c3cn(C)c4ccccc34)c(=O)n(C)c2n1	Cytochrome P450 3A4 (Homo sapiens)	10 µM (inconclusive)
Oc1ccc2c3c1O[C@H]1c4oc5ccccc5c4C[C@]4(O)[C@H](C2)N(CC2CC2)CC[C@@]314	Cytochrome P450 3A4 (Homo sapiens)	20 µM (inconclusive)
Clc1ccc(Nc2nc[nH]n2)cc1	Cytochrome P450 3A4 (Homo sapiens)	31.6 µM (inconclusive)
Cc1cc2c(nc1C)CCCN2C[C@H](C)O/N=C1/[C@H]2O[C@@H]2[C@@H](O)[C@H]2[C@H]1CCn1c(=O)n(-c3ccccc3)c(=O)n12	Cytochrome P450 3A4 (Homo sapiens)	6.31 µM (inconclusive)

Lab note: next molecule to report on.
Task: # value lookup — system Cytochrome P450 3A4 (Homo sapiens), readout AC50, item C=CCOc1cccc(CNn2cnnc2S)c1;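 further: CYP3A4 tested as one member of a cytochrome P450 panel screen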
Result: 28.2 µM (inconclusive)
